Cited source for all entries: ChEMBL document CHEMBL4028810

Test system: HepG2
Assay: Cytotoxicity against human HepG2 cells after 48 hrs by MTT assay
Type: functional, cell-based
Details: HepG2, 48 h
Threshold-based label: IC50 under 9 µM gives t, IC50 not under 9 µM gives f.

Ask: Lab log: compare recorded IC50 with 9 µM; is it strictly lower for COc1ccc(NC(=O)COc2cc(/C=C/C(=O)c3cc(OC)c(OC)c(OC)c3)ccc2OC)cc1 ?
Reply: t

Ask: I wonder whether COc1ccc(/C=C/C(=O)c2cc(OC)c(OC)c(OC)c2)cc1OCC(=O)Nc1ccc(Br)cc1 has IC50 below 9 µM. Can you tell?
Reply: f

Ask: In plain terms, does COc1ccc(/C=C/C(=O)c2ccc(OC)c3c2OC(C)(C)C=C3)cc1OCC(=O)Nc1ccccc1C come in under 9 µM for IC50?
Reply: f

Ask: # strict comparison: is reported IC50 < 9 µM? input = COc1ccc(/C=C/C(=O)c2cc(OC)c(OC)c(OC)c2)cc1OCC(=O)Nc1ccccc1Cl
Reply: t

Ask: Please let me know if COc1ccc(/C=C/C(=O)c2cc(OC)c(OC)c(OC)c2)cc1OCC(=O)Nc1ccccc1Br shows IC50 below 9 µM.
Reply: f

Ask: Strictly below 9 µM in IC50? COc1ccc(/C=C/C(=O)c2ccc(OC)c3c2OC(C)(C)C=C3)cc1OCC(=O)Nc1ccccc1Br
Reply: f

Ask: Strictly below 9 µM: is that where IC50 of COc1ccc(/C=C/C(=O)c2ccc(OC)c3c2OC(C)(C)C=C3)cc1OCC(=O)Nc1ccc(Br)cc1 sits?
Reply: f

Ask: Does the reported IC50 of the following compound sit strictly below 9 µM? COc1ccccc1NC(=O)COc1cc(/C=C/C(=O)c2ccc(OC)c3c2OC(C)(C)C=C3)ccc1OC
Reply: t

Ask: Given the entry COc1ccc(/C=C/C(=O)c2cc(OC)c(OC)c(OC)c2)cc1OCC(=O)Nc1ccccc1F , would its reported IC50 be below 9 µM?
Reply: t

Ask: Here's an entry: COc1ccccc1NC(=O)COc1cc(/C=C/C(=O)c2cc(OC)c(OC)c(OC)c2)ccc1OC . Is its IC50 below 9 µM?
Reply: f

Ask: hey, is IC50 for COc1ccc(/C=C/C(=O)c2cc(OC)c(OC)c(OC)c2)cc1OCC(=O)Nc1ccc(Cl)cc1 lower than 9 µM or not?
Reply: f

Ask: Lab log: compare recorded IC50 with 9 µM; is it strictly lower for COc1ccc(/C=C/C(=O)c2ccc(OC)c3c2OC(C)(C)C=C3)cc1 [MILLEPACHINE] ?
Reply: t

Ask: Say whether its IC50 is strictly beneath 9 µM. Entry: COc1ccc(/C=C/C(=O)c2cc(OC)c(OC)c(OC)c2)cc1OCC(=O)Nc1ccccc1
Reply: f

Ask: Dear reviewer, please state whether COc1ccc(/C=C/C(=O)c2ccc(OC)c3c2OC(C)(C)C=C3)cc1OCC(=O)Nc1ccccc1 has IC50 strictly beneath 9 µM.
Reply: f

Ask: Quick check: does COc1ccc(/C=C/C(=O)c2ccc(OC)c3c2OC(C)(C)C=C3)cc1OCC(=O)Nc1ccc(O)cc1 have IC50 under 9 µM?
Reply: f

Ask: # TODO verify IC50 < 9 µM strictly for this compound: COc1ccc(/C=C/C(=O)c2ccc(OC)c3c2OC(C)(C)C=C3)cc1OCC(=O)Nc1ccccc1Cl
Reply: f

Ask: Is 9 µM strictly greater than the compound's reported IC50? compound: COc1ccc(/C=C/C(=O)c2cc(OC)c(OC)c(OC)c2)cc1OCC(=O)Nc1ccccc1C
Reply: f

Ask: Threshold test, IC50 < 9 µM: COc1ccc(/C=C/C(=O)c2ccc(OC)c3c2OC(C)(C)C=C3)cc1OCC(=O)Nc1ccccc1F
Reply: f

Ask: Does this compound meet the criterion IC50 < 9 µM? COc1ccc(/C=C/C(=O)c2cc(OC)c(OC)c(OC)c2)cc1OCC(=O)Nc1ccc(F)cc1
Reply: f

Ask: Lab log: compare recorded IC50 with 9 µM; is it strictly lower for COc1ccc(/C=C/C(=O)c2cc(OC)c(OC)c(OC)c2)cc1OCC(=O)Nc1ccc(O)cc1 ?
Reply: f

Ask: Is IC50 of COc1ccc(/C=C/C(=O)c2ccc(OC)c3c2OC(C)(C)C=C3)cc1OCC(=O)Nc1ccc(F)cc1 strictly below 9 µM?
Reply: f

Ask: IC50 strictly < 9 µM for this compound? COc1ccc(/C=C/C(=O)c2ccc(OC)c3c2OC(C)(C)C=C3)cc1OCC(=O)Nc1ccc(C)cc1
Reply: f

Ask: Strictly below 9 µM: is that where IC50 of COc1ccc(/C=C/C(=O)c2ccc(OC)c3c2OC(C)(C)C=C3)cc1OCC(=O)Nc1ccc(Cl)cc1 sits?
Reply: f
